Experiment: NCI Yeast Anticancer Drug Screen. Data for the sgs1 mgt1 strain (AID 161)
Details: S. cerevisiae sgs1 mgt1 strain, at 50.0 µM
Compounds without any hit were thinned out: in the full panel of roughly 79,000, 15% have a hit. Calls of active or inactive are those of the source. Cut-off read from the data, not from the text of the source: active = growth inhibition above about 70%; inactive = the rest. Where a SMILES comes first, the peptide text is derived from it. [ ]: non-standard residue; d: D form. The star is where a group is joined. ξ: configuration not given here. ξD = NC(CC(=O)O)C(=O)O; Boc = CC(C)(C)OC(=O)*; Aib = CC(C)(N)C(=O)O; OtBu = CC(C)(C)O*
Classes used: active, inactive

> print(dat)
                                    compound  assigned.class
 1  O=c1[nH]c2cc(Cl)c([N+](=O)[O-])cc2c2ccc(Cl)cc12        inactive
 2                   CSc1ccccc1N1C(=O)CSC1=S        inactive
 3  O=C(NC[N+]12CCO[B-]1(c1ccc(Cl)cc1)OCC2)c1ccccc1O (centres undefined)        inactive
 4                          CNC(=S)Nc1ccccc1        inactive
 5  Cc1ccc(-c2cs/c(=N\N=C3/CSC(=O)N3Cc3ccccc3)n2-c2ccccc2)cc1        inactive
 6  Cc1cc(C(c2ccc(Nc3ccccc3)cc2)c2ccc(Nc3ccccc3)cc2)ccc1Nc1ccccc1        inactive
 7  CC12CCCC3(CC(=O)C(C)(C)C3C(=O)C1)C2 (centres undefined)        inactive
 8  O=C1C=CC(=O)C2CC=CCC12 (centres undefined)        inactive
 9  NC(=S)NCc1ccccc1C(O)c1ccccc1 (centres undefined)        inactive
10  CN(C)CCNC(=O)c1cccc(C(C)(C)C)c1[N+](=O)[O-]        inactive
11  COc1cc(Nc2cnc3ccc(C(F)(F)F)cc3n2)cc(OC)c1OC        inactive
12             CCOC(=O)c1ccc(N(N=O)C(C)C)cc1        inactive
13  COC(=O)C(C)(C)NC(=O)C(C)(C)NC(=O)C(CC(=O)OC(C)(C)C)NC(=O)OC(C)(C)C (centres undefined) (Boc-[ξD](OtBu)-[Aib]-[Aib]-OMe)        inactive
14              c1ccc2c(c1)Cc1ccc3ccccc3c1-2        inactive
15                          O=c1c(O)c(O)c1=O        inactive
16  O=C(/C=C/c1ccc2c(c1)OCO2)CC(=O)/C=C/c1ccc2c(c1)OCO2        inactive
17         O=C(c1ccccc1)c1c[nH]c(=O)[nH]c1=O        inactive
18  CN(C)CC(Oc1ccccc1)C(=O)c1ccccc1 (centres undefined)        inactive
19     Cc1cccc(C(=O)NNC(=O)c2ccc3ccccc3c2)c1        inactive
20                 Cc1nc2[nH]ncn2c(=O)c1CCCl        inactive
21                O=c1c[n+](-c2ccccc2)[nH]o1        inactive
22  CC(C)(Br)C(=O)N1CCN(C(c2ccccc2)c2ccccc2)CC1        inactive
23  COc1ccc(N2C(=O)C3c4[nH]c5ccccc5c4C4CC(C)CC(C)C4C3C2=O)cc1 (centres undefined)        inactive
24  CC1(C)CC(C)(Br)C(Br)C(=O)C1C(O)(C(F)(F)F)C(F)(F)F (centres undefined)          active
